System: CAKI-1 renal
Assay: NCI tumour cell line growth inhibition, 48 h
Recorded TGI by entry
RECORDED METRIC: TGI (µM)

INSERT INTO results (compound, scale_unit, rel, endpoint_result) VALUES
  ('C=C1c2nc3ccccc3n2C=C(c2ccc(OC)cc2)N1c1ccc(OC)cc1', 'µM', '=', 19.3),
  ('O=C1c2cccc3cc([N+](=O)[O-])cc(c23)C(=O)N1Nc1ccc([N+](=O)[O-])cc1[N+](=O)[O-]', 'µM', '>', 31.6),
  ('CO[C@](C(=O)OC[C@H]1[C@@H](COC(C)=O)[C@@H]2O[C@H]1c1cc3c(cc12)OCO3)(c1ccccc1)C(F)(F)F', 'µM', '>', 100),
  ('Nc1ncc2c(n1)-c1ccccc1OC2N1CCCCC1 (stereo not given)', 'µM', '>', 100),
  ('O=[N+]([O-])c1ccc2nc(Nc3ccccc3)c(Nc3ccccc3)nc2c1', 'µM', '=', 11.2),
  ('COc1cc2c(cc1O)[C@H](C)C(c1ccc(OC)c(OC)c1)O2 (stereo not given in full)', 'µM', '=', 15.9),
  ('c1ccc(Nc2ncc(-c3ccccc3)o2)cc1', 'µM', '>', 25),
  ('CC1(C)[C@@H](Cn2cc(I)c(=O)[nH]c2=O)CC[C@@]1(C)CO', 'µM', '>', 100),
  ('CN(C)CC(O)c1ccc(/C=C/c2ccc(Cl)cc2)cc1 (stereo not given)', 'µM', '=', 2.05),
  ('O=C1c2sc(-c3ccc(Cl)cc3)cc2-n2cccc21', 'µM', '>', 100),
  ('COc1ccc(S(=O)(=O)n2c3c(c4ccccc42)[C@@H]2[C@@H](CCCN2C(=O)CS(=O)c2ccc(C)cc2)[C@H](Cl)C3)cc1 (stereo not given in full)', 'µM', '>', 100),
  ('Cc1cc(OC(=O)Nc2cccc3ccccc23)c(C(C)C)cc1C(=S)Nc1ccccc1', 'µM', '=', 54.7),
  ('CN1CCN(c2ccc(Nc3ncc(Cl)c(NC[C@@H]4CCCO4)n3)cc2)CC1', 'µM', '>', 100),
  ('Cc1nn(C(=O)Cc2ccccc2)c2c1C(c1ccccc1)SC(N)=N2 (stereo not given)', 'µM', '>', 100),
  ('CC(N)/C(N)=N/O (stereo not given)', 'µM', '>', 100),
  ('C=C(C)C(=O)O[C@@H]1C[C@@]2(C)O[C@@H]2C[C@H](O)/C(C)=C/[C@H]2OC(=O)C(=C)[C@@H]21', 'µM', '=', 67.4),
  ('COc1cc(-c2nc3sccn3c2-c2ccnc(NCCNS(=O)(=O)c3ccc(F)cc3)n2)ccc1F', 'µM', '>', 100),
  ('O=C(NC1C=CCC2C(=O)N(c3ccccc3)C(=O)C12)OCc1ccccc1 (stereo not given)', 'µM', '>', 100),
  ('C=C(C)C12OC1[C@@]1(C)C(=CC2=O)CCC(O)[C@@H]1C (stereo not given in full)', 'µM', '=', 3),
  ('Cc1cc(Nc2ccc(C)c(Cl)c2)n2nc(C(F)(F)F)nc2n1', 'µM', '=', 34.7);
